tested on: Vero E6 infected with SARS-CoV-2; experiment: inhibition of SARS-CoV-2 cytopathic effect; higher = more antiviral protection, active = above 15; conditions: 10000 nM; 48 h
QUANTITY: inhibition of SARS-CoV-2 cytopathic effect (%)
Express your answer in %, writing the number without its unit.

Value of inhibition of SARS-CoV-2 cytopathic effect reported for the compound C[N+]1([O-])[C@@H]2C[C@@H](OC(=O)[C@H](CO)c3ccccc3)C[C@H]1[C@@H]1O[C@@H]12 (some centres undefined) [scopolamine-N-oxide] is 3.51

Value of inhibition of SARS-CoV-2 cytopathic effect reported for the compound CO[C@H]1/C=C/O[C@@]2(C)Oc3c(C)c(O)c4c(O)c(c5c(nc6cc(C)ccn65)c4c3C2=O)NC(=O)/C(C)=C\C=C\[C@H](C)[C@H](O)[C@@H](C)[C@@H](O)[C@@H](C)[C@H](OC(C)=O)[C@@H]1C [rifaximin] is -3.3

Value of inhibition of SARS-CoV-2 cytopathic effect reported for the compound CCOC(=O)Nc1ccc(NCc2c(C)cc(C)cc2C)cc1N is 2.16

Value of inhibition of SARS-CoV-2 cytopathic effect reported for the compound N#C/C(=C\c1cccn1S(=O)(=O)c1cccc([N+](=O)[O-])c1)S(=O)(=O)c1ccc(F)cc1 is -0.73

Value of inhibition of SARS-CoV-2 cytopathic effect reported for the compound C#C[C@]1(O)CC[C@H]2[C@@H]3CCC4=CC(=O)CC[C@@H]4[C@H]3CC[C@@]21CC [norgestrel] is 0.025

Value of inhibition of SARS-CoV-2 cytopathic effect reported for the compound CCN(CC)CCNC(=O)c1ccccc1I is 2.51

Value of inhibition of SARS-CoV-2 cytopathic effect reported for the compound O=C(O)/C=C/c1ccc(Cn2ccnc2)cc1 [ozagrel] is -0.91

Value of inhibition of SARS-CoV-2 cytopathic effect reported for the compound C[C@]12C=CC(=O)C=C1CC[C@@H]1[C@@H]2CC[C@]2(C)OC(=O)CC[C@@H]12 [Testolactone] is 11.2

Value of inhibition of SARS-CoV-2 cytopathic effect reported for the compound COC(=O)C1=C(C)NC(C)=C(C(=O)OC2CCCN(Cc3ccccc3)C2)C1c1cccc([N+](=O)[O-])c1 (centres undefined) [benidipine] is -3.67

Value of inhibition of SARS-CoV-2 cytopathic effect reported for the compound O=C(Nc1ccc(S(=O)(=O)C(F)(F)F)cc1)C1=CCN(c2ncccc2C(F)(F)F)CC1 is -2.58

Value of inhibition of SARS-CoV-2 cytopathic effect reported for the compound Cc1c(O)cccc1C(=O)N[C@@H](CSc1ccccc1)[C@H](O)CN1C[C@H]2CCCC[C@H]2C[C@H]1C(=O)NC(C)(C)C [nelfinavir] is 43.2

Value of inhibition of SARS-CoV-2 cytopathic effect reported for the compound O=C(c1c2ccccc2cc2ccccc12)N1CCC(N2CCC[C@@H](C(=O)N3CCOCC3)C2)CC1 is -6.08

Value of inhibition of SARS-CoV-2 cytopathic effect reported for the compound COC(=O)C1=C(C)NC(C)=C(C(=O)OCCN2CCN(C(c3ccccc3)c3ccccc3)CC2)C1c1cccc([N+](=O)[O-])c1 (centres undefined) [manidipine] is -7.15

Value of inhibition of SARS-CoV-2 cytopathic effect reported for the compound CCCCCCCC/C=C\CCCCCCCC(N)=O [oleamide] is 0.18

Value of inhibition of SARS-CoV-2 cytopathic effect reported for the compound O=C(O)c1cc(/N=N/c2ccc(S(=O)(=O)Nc3ccccn3)cc2)ccc1O [sulfasalazine] is 0.47

Value of inhibition of SARS-CoV-2 cytopathic effect reported for the compound CCCc1cc(C)[nH]c(=O)c1CNC(=O)c1cc(-c2ccc(N3CCN(C(C)C)CC3)nc2)cc2c1cnn2C(C)C is 42.3

Value of inhibition of SARS-CoV-2 cytopathic effect reported for the compound NC(=O)c1ccc[n+]([C@@H]2O[C@H](COP(=O)([O-])OP(=O)(O)OC[C@H]3O[C@@H](n4cnc5c(N)ncnc54)[C@H](O)[C@@H]3O)[C@@H](O)[C@H]2O)c1 [nadide] is -0.54

Value of inhibition of SARS-CoV-2 cytopathic effect reported for the compound Cc1cc(=O)oc2c(C=O)c(O)ccc12 is 6.12

Value of inhibition of SARS-CoV-2 cytopathic effect reported for the compound N#C/C(=C\c1ccc(O)c(O)c1)C(=O)NCCCCc1ccccc1 is -0.03

Value of inhibition of SARS-CoV-2 cytopathic effect reported for the compound COc1ccc(-c2coc3cc(O)cc(O)c3c2=O)cc1 [4-methylgenistein] is 2.29

Value of inhibition of SARS-CoV-2 cytopathic effect reported for the compound Cc1ccc2c(c1)C1(CCN(CCc3nc(-c4ccccc4)oc3C)CC1)OC(=O)N2 is -7.82

Value of inhibition of SARS-CoV-2 cytopathic effect reported for the compound CCCCOc1cc(C(=O)NCCN(CC)CC)c2ccccc2n1 [cinchocaine] is 0.77

Value of inhibition of SARS-CoV-2 cytopathic effect reported for the compound COc1ccc(C(=O)c2c(C)n(CCN3CCOCC3)c3cc(I)ccc23)cc1 is 2.05

Value of inhibition of SARS-CoV-2 cytopathic effect reported for the compound CCCn1c(=O)c2nc(C34CC5CC(CC3C5)C4)[nH]c2n(CCC)c1=O is 1.25

Value of inhibition of SARS-CoV-2 cytopathic effect reported for the compound CO/N=C(\C(=O)N[C@@H]1C(=O)N2C(C(=O)O)=C(CSc3nc(C)c(CC(=O)O)s3)CS[C@H]12)c1csc(N)n1 [cefodizime] is -4.2

Value of inhibition of SARS-CoV-2 cytopathic effect reported for the compound COc1ccc2[nH]cc(C3=CCNCC3)c2c1 is -3.05

Value of inhibition of SARS-CoV-2 cytopathic effect reported for the compound c1ccc2nc(C3=NCCN3)ccc2c1 is 2.01

Value of inhibition of SARS-CoV-2 cytopathic effect reported for the compound OCCN1CCN(CCCN2c3ccccc3Sc3ccc(Cl)cc32)CC1 [perphenazine] is 2.67

Value of inhibition of SARS-CoV-2 cytopathic effect reported for the compound O=C1[C@H](CC[C@H](O)c2ccc(F)cc2)[C@@H](c2ccc(O)cc2)N1c1ccc(F)cc1 [ezetimibe] is 5.44

Value of inhibition of SARS-CoV-2 cytopathic effect reported for the compound O=[N+]([O-])c1c(Nc2cc(F)cc(Cl)c2)ccc2nonc12 is 2.66

Value of inhibition of SARS-CoV-2 cytopathic effect reported for the compound C[C@]12CCC(=O)C=C1CC[C@@H]1[C@@H]2CC[C@@]2(C)[C@H]1CC[C@]2(C)O [17-alpha-Methyltestosterone] is 1.92

Value of inhibition of SARS-CoV-2 cytopathic effect reported for the compound CCNC1=Nc2ccc(Cl)cc2C(C)(c2ccccc2)O1 (centres undefined) [etifoxine] is -2.7

Value of inhibition of SARS-CoV-2 cytopathic effect reported for the compound COc1ccc(S(=O)(=O)Nc2c(C)cc(C)cc2C)cc1 is 0.94

Value of inhibition of SARS-CoV-2 cytopathic effect reported for the compound O=S(=O)(c1cccc2c(O)nccc12)N1CCCNCC1 [hydroxyfasudil] is -0.71
